System: T-47D breast
assaySummary: NCI-60 one-dose screen, 48 h
runConditions: 10 µM unless noted
About 83,000 compounds went through this panel and 20% of them were active in at least one assay; those are over-represented in the sample as a whole. Activity calls are given as the source filed them. Rule for the calls: active = growth percent below 10; inactive = the rest.
Tick one outcome: 1.0 for active, 0.0 for inactive

Previously resolved entries follow.
compound=COc1cc2nc(N3CCC[C@@H](NC4=CC(=O)c5ccccc5C4=O)C3)nc(N)c2cc1OC classification=1.0
compound="CC1(C)OC2COC3(C(=O)O)OC(C)(C)OC3C2O1 (stereo not given)" classification=0.0
compound=COc1ccc(Cn2c(SC)nc(=O)n(Cc3ccc(Cl)cc3)c2=O)cc1 classification=0.0
compound=COc1ccc(-c2nc(-c3nc4ccc(F)cc4[nH]3)cc3c2[nH]c2ccccc23)cc1 classification=0.0

[Q] I would be grateful if you could indicate the recorded call for Cc1ccnc2nc(C(=O)OCC(=O)Nc3ccc(-c4ccccc4)cc3)nn12 .
[A] 0.0

---

Test system: SNB-75 CNS
assaySummary: NCI-60 one-dose screen, 48 h (100 = growth as untreated, 0 = no growth, -100 = all killed)
runConditions: 10 µM unless noted
About 83,000 compounds went through this panel and 20% of them were active in at least one assay; those are over-represented in the sample as a whole.
quantityKind: growth (%)
Please give a number only; it is taken to be in %.

Below, each entry is followed by its recorded growth result.
compound=CC/C=C\C[C@H](O)C/C=C1/C(=O)C(Cl)=C[C@@H]1C/C=C\CCCC(=O)OC testedon="SNB-75 CNS" experimentalvalue=50
compound=COc1ccc(C(=O)/C=C/c2ccc(/C=C/c3cc(OC)c(OC)c(OC)c3)cc2)cc1 testedon="SNB-75 CNS" experimentalvalue=59.8
compound="COc1cc(C2C=C(C)N=C3SC(C)=NN32)cc(OC)c1OC (centres undefined)" testedon="SNB-75 CNS" experimentalvalue=82.5

[Q] Entry CCOC(=O)C1=C(CSC(=S)N(C2CCCCC2)C2CCCCC2)N(C)C(=O)NC1c1ccccc1 (centres undefined) has what growth?
[A] 71.8

---

Measured growth of individual entries
Test system: NCI-H460 lung
assaySummary: NCI-60 one-dose screen, 48 h (100 = growth as untreated, 0 = no growth, -100 = all killed)
runConditions: 10 µM unless noted
Compounds without any hit were thinned out: in the full panel of roughly 83,000, 20% have a hit.
Please give a number only; it is taken to be in %.

compound=CC(C)C[C@H](NC(=O)[C@H](Cc1ccccc1)n1ccc(N2CCCCC2)cc1=O)B(O)O experimentalvalue=34.7
compound="Nc1nc(N)c2nc(CNc3ccc(C(=O)CC(CCC(=O)O)C(=O)O)cc3)cnc2n1 (centres undefined)" experimentalvalue=19.8

[Q] Entry Clc1ccc([I+]c2ccc(Cl)cc2Cl)c(Cl)c1 has what growth?
[A] 81

[Q] Entry COC1=CC(c2ccc[nH]2)=N/C1=C\c1[nH]c(C)c(CCCn2cc(CCCCCCCCC[C@@H]3Cc4cc(O)ccc4C4CC[C@]5(C)[C@@H](O)CC[C@H]5C43)nn2)c1C (some centres undefined) has what growth?
[A] 37.3

[Q] Entry COc1cc(/C=C2\C=C(c3ccc(F)cc3)N(Cc3ccccc3)C2=O)cc(OC)c1OC has what growth?
[A] 66.4

[Q] Entry O=C1Nc2ccc(Br)cc2C1=N/C=c1\[nH]c(=O)/c(=C/c2ccc(Cl)cc2)s1 has what growth?
[A] 101

[Q] Entry COc1ccc(C(=O)c2cc(OC)c(OC)c(OC)c2)cc1/C=C/C(=O)c1ccc2c(c1)OCO2 has what growth?
[A] 14.6

[Q] Entry CCC1=C[C@@H]2CN(C1)Cc1c([nH]c3ccccc13)[C@@](C(=O)OC)(c1cc3c(cc1OC)N(C=O)[C@H]1[C@@](O)(C(=O)OC)[C@H](OC(C)=O)[C@]4(CC)[C@@H]5C[C@@H]5CN5CC[C@]31[C@@H]54)C2 has what growth?
[A] 6.63

[Q] Entry CCOC(=O)[C@H](CSSc1ncnc2cc[nH]c12)NC(=O)[C@@H](C)c1ccc2cc(OC)ccc2c1 has what growth?
[A] 32.7
